Some compounds, each annotated with its measured CLhep predicted at 1 µM.
# testDetails: Microsomal stability in human liver microsome assessed as clearance at 1.0 uM preincubated for 5 mins followed by NADPH addition measured upto 60 mins by LC-MS/MS analysis
# Format: ADME
# studyConditions: liver microsomes, time < 65 min
measure: CLhep predicted at 1 µM

INSERT INTO measurements (smilesinput, assayvalue) VALUES
  ('C[C@@H]1COCCN1c1cc2n(n1)[C@@H]1CCC[C@@H]1NC2=O', '< 3.9 mL/min/kg'),
  ('C[C@@H]1COCCN1c1cc2n(n1)C[C@H](C(F)(F)F)NC2=O', '< 3.9 mL/min/kg'),
  ('CC(C)[C@@H]1CNC(=O)c2cc(N3CCOC[C@H]3C)nn21', '< 3.9 mL/min/kg');
